// data source = patent US4018801A

Here, each record is paired with measured % Control data.
- Test system: Crabgrass
- assay_details: Pre-emergent control of seed germination, soil drench
- Format: in vivo
- reported_conditions: pre-emergence, Crab Grass, 1/16 Lb/Acre
Report only the number, with the unit % understood.

Field: example entries. Status: answers known.
compound: Clc1ccc(C2(CC(Cl)(Cl)Cl)CO2)cc1 (stereo not shown) [Cmpd. B, reference compound]
target_system: Crabgrass
unit_spec: %
% Control: 0
//
compound: ClC(Cl)(Cl)CC1(c2cccc(Br)c2)CO1 (stereo not shown) [Example 3]
target_system: Crabgrass
unit_spec: %
% Control: 70

Field % Control (entry Clc1cccc(C2(CC(Cl)(Cl)Cl)CO2)c1 (stereo not shown) [Example 7] ) reads 100

Value of % Control reported for the compound ClC(Cl)(Cl)CC1(c2ccc(Br)cc2)CO1 (stereo not shown) [Cmpd. D, reference compound] is 0
